assayDetails: DUX4 transcriptional activity inhibition in cells – 293T cells, Gaussia and Italica luciferase, primary screen (AID 1224904)
studyConditions: 293T-iDUX4 ZSCAN4-Gaussia luciferase reporter, 24 h; measured here: selective DUX4 reporter inhibition; stronger effect = lower value; concentration not given here
The whole screen tested about 37,000 compounds, of which about 290 (0.78%) were called active. About 10% were inconclusive and are not listed. Many of the other results were omitted from the sample, so actives are more common in it than they were.
readoutKind: Gaussia minus Italica difference (%)
// note: answer is a bare numeric in %

Known results for molecules:
structureSmilesString	unitAbbrev	Gaussia minus Italica difference
COCC(=O)N[C@@H]1C=C[C@@H](CC(=O)N2CCCCC2)O[C@@H]1CO	%	7.14
Cc1ccc(S(=O)(=O)N(C)C[C@H]2OCc3ccccc3-c3ccccc3C(=O)N([C@@H](C)CO)C[C@@H]2C)cc1	%	7.63
CS(=O)(=O)N1C[C@@H](O)COC[C@@H]2O[C@H](CC(=O)NC3Cc4ccccc4C3)CC[C@H]21	%	9.82

Name the reported Gaussia minus Italica difference value associated with the molecule C[C@@H](NC(=O)[C@@H]1[C@@H](CO)[C@@H]2Cn3c(ccc(C4=CCCCC4)c3=O)[C@@H]2N1C)c1ccccc1
2.15
